- study target: PTGER2 (EP2) (Homo sapiens (Human), UniProt P43116)
- Sequence (P43116 whole entry): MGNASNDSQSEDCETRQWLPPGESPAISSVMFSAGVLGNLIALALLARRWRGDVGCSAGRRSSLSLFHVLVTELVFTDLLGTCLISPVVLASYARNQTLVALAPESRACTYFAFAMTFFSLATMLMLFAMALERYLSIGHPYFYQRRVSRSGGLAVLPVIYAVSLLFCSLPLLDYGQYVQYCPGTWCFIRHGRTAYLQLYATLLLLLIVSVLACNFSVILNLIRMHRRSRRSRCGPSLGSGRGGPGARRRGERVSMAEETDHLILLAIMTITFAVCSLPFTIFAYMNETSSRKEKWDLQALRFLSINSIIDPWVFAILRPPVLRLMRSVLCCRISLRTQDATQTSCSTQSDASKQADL
- assay overview: hEP2 b-arrestin assay (PathHunter HEK 293 PTGER2 b-arrestin cells)
- protocol conditions: antagonistic activity, beta-arrestin assay; read-out: hEP2 b-arr IC50
recorded metric: IC50 (nM)

1) Cc1cc(-c2cc(NCCc3cc(F)c4sccc4c3)ncn2)cc(C)c1O :: 293
2) O=C(O)c1ccc(-c2cc(NCCc3ccc4sccc4c3F)ncn2)cc1OC1CCC1 :: 84
3) CCOc1cc2c(cc1CCNc1cc(-c3ccc(CC(=O)O)c(CC(C)C)c3)ncn1)OCCO2 :: 20
4) CCOc1cc(-c2cc(NCCc3cc4ccoc4cc3OC)ncn2)ccc1C(=O)O :: 32
5) CCOc1cc(-c2cc(NCCc3cc4ccccc4cc3C)ncn2)sc1C(=O)O :: 126
6) COc1cc2c(cc1CCNc1cc(-c3ccc(C(=O)O)c(OC4CCC4)c3)ncn1)OCCO2 :: 74
7) CCc1cc(-c2cc(NCCc3cc(F)c4sccc4c3)ncn2)cc(Cl)c1CC(=O)O :: 604
8) COc1cc2occc2c(C)c1CCNc1cc(-c2ccc(C(=O)O)c(OC3CCC3)c2)ncn1 :: 8
9) CCc1cc(-c2cc(NCCc3ccc4sccc4c3F)ncn2)ccc1CC(=O)O :: 262
10) COc1cc2c(cc1CCNc1cc(-c3ccc(CC(=O)O)c(C(F)(F)F)c3)ncn1)OCCO2 :: 160
11) CC(C)Cc1cc(-c2cc(NCCc3ccc4sccc4c3F)ncn2)ccc1CC(=O)O :: 260
12) CCOc1cc(-c2cc(NCCc3ccc4sccc4c3)ncn2)ccc1CC(=O)O :: 158
13) CCOc1cc(-c2cc(NCCc3cc(F)c4sccc4c3)ncn2)sc1CCC(=O)O :: 871
14) c1nc(NCCc2ccc3cc[nH]c3c2)cc(-c2ccc3[nH]ccc3c2)n1 :: 151
15) COc1cc2ccsc2cc1CCNc1cc(-c2ccc(C(=O)O)c(SC)c2)ncn1 :: 119
16) Cc1c(CCNc2cc(-c3ccc(C(=O)O)c(OC4CC4)c3)ncn2)ccc2c1OCCO2 :: 19
17) Cc1c(CCNc2cc(-c3ccc(CC(=O)O)c(OC(F)F)c3)ncn2)ccc2c1OCCO2 :: 304
18) N#Cc1csc2ccc(CCNc3cc(-c4ccc(C(=O)O)c(OC5CCC5)c4)ncn3)cc12 :: 289
19) CCOc1cc2ccccc2cc1CCNc1cc(-c2ccc(C(=O)O)c(OC3CCC3)c2)ncn1 :: 83
20) CCOc1cc(-c2cc(NCCc3cc4c(cc3OC)OCO4)ncn2)ccc1CC(=O)O :: 307
21) CCOc1cc(-c2cc(NCCc3ccc4ccsc4c3C)ncn2)ccc1C(=O)O :: 343
22) CCOc1cc(-c2cc(NCCc3ccc4scc(C)c4c3)ncn2)sc1C(=O)O :: 45
23) CCCc1cc(-c2cc(NCCc3ccc4sccc4c3F)ncn2)ccc1C(=O)O :: 20
24) CSc1cc(-c2cc(NCCc3cc4c(cc3C#N)OCCO4)ncn2)ccc1C(=O)O :: 192
25) CCOc1cc(-c2cc(NCCc3ccc4scc(C#N)c4c3)ncn2)ccc1C(=O)O :: 521
26) O=C(O)c1ccc(-c2cc(NCCc3ccc4c(c3)CCS4)ncn2)cc1OC1CCC1 :: 241
27) CCOc1cc(-c2cc(NCCc3cc(Cl)c4sccc4c3)ncn2)sc1C(=O)O :: 40
28) COc1cc2ccccc2c(C)c1CCNc1cc(-c2ccc(C(=O)O)c(OC3CCC3)c2)ncn1 :: 43
29) Fc1cc2ncccc2c(F)c1CCNc1cc(-c2ccc3[nH]ccc3c2)ncn1 :: 158
30) CCOc1cc2ccccc2cc1CCNc1cc(-c2ccc(C(=O)O)c(OCC)c2)ncn1 :: 45
31) CCOc1cc(-c2cc(NCCc3cc4c(cc3SC)OCCO4)ncn2)sc1C(=O)O :: 141
32) CCOc1cc(-c2cc(NCCc3cc4ccccc4c(F)c3OC)ncn2)ccc1C(=O)O :: 409
